All figures here come from patent US8377975B2.

biological target: SGK2 (Homo sapiens, UniProt Q9HBY8)
Sequence (Q9HBY8 whole entry): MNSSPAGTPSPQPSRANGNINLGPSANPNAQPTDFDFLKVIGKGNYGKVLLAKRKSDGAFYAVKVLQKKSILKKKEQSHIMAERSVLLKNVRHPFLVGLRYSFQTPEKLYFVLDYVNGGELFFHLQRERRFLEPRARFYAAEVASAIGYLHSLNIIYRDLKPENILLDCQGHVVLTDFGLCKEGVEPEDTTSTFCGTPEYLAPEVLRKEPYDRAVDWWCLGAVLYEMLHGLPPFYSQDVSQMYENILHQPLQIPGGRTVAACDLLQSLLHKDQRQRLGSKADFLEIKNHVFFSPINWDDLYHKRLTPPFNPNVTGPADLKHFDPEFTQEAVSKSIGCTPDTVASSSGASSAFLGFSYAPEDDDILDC
MEASUREMENT_NAME: IC50

Known value: SGK2 (Homo sapiens, UniProt Q9HBY8) IC50 of the compound CCc1c(-c2nnc(NCc3cccc(F)c3)o2)ccc(O)c1C equals 1 to 100 nM

* * *

target: GSK3-beta (Homo sapiens, UniProt P49841)
Sequence (P49841 whole entry): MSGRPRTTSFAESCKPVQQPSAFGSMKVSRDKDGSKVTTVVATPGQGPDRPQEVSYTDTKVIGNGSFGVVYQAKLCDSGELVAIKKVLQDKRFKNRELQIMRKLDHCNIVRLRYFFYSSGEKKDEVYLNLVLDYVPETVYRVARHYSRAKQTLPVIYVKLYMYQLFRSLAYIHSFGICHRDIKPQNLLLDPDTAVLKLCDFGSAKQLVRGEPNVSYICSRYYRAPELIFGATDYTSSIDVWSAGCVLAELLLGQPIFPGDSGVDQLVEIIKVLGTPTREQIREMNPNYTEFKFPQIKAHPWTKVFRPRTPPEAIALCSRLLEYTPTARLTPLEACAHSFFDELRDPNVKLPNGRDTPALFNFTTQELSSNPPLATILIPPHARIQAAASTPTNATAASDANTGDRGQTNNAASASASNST
pIC50: −log10 of the molar value.
MEASUREMENT_NAME: pIC50

Input CCc1c(-c2nnc(N[C@H](C)c3cccc(OC)c3)o2)ccc(O)c1C [Compound A3] . Output pIC50: 7.00 to 9.00
